assay: 39-week monkey toxicity study: retina effects (ERG, sdOCT, histopathology), NOAEL; conditions: female, cynomolgus monkey, plasma, po, 5 mg/kg/day
reported-endpoint: AUC(0-t) (ng·h/mL)
Give the quantity in ng·h/mL, number only.

// query AUC(0-t) value for entry Cc1cn2nc(-c3cc(=O)n4cc(N5CCNC6(CC6)C5)ccc4n3)cc(C)c2n1
6470

###

test: 39-week monkey toxicity study: toxicokinetics in plasma; type: in vivo, cynomolgus monkeys (Macaca fascicularis); conditions: female, cynomolgus monkey, plasma; Day 267, 1.5 mg/kg/day oral; read-out: AUC(0-24h), female (mean)
reported-endpoint: AUC(0-t) (ng·h/mL)
Give the quantity in ng·h/mL, number only.

// query AUC(0-t) value for entry Cc1cn2nc(-c3cc(=O)n4cc(N5CCNC6(CC6)C5)ccc4n3)cc(C)c2n1 [RO7034067]
2060

###

experiment: 39-week monkey toxicity study: retina effects (ERG, sdOCT, histopathology), NOAEL; settings: female, cynomolgus monkey, plasma, po, 3 mg/kg/day
reported-endpoint: AUC(0-t) (ng·h/mL)
Give the quantity in ng·h/mL, number only.

// query AUC(0-t) value for entry Cc1cn2nc(-c3cc(=O)n4cc(N5CCNC6(CC6)C5)ccc4n3)cc(C)c2n1
4850

###

assay: 39-week monkey toxicity study: retina effects (ERG, sdOCT, histopathology), NOAEL; conditions: male, cynomolgus monkey, plasma, po, 3 mg/kg/day
reported-endpoint: AUC(0-t) (ng·h/mL)
Give the quantity in ng·h/mL, number only.

// query AUC(0-t) value for entry Cc1cn2nc(-c3cc(=O)n4cc(N5CCNC6(CC6)C5)ccc4n3)cc(C)c2n1 [RO7034067]
4880

###

Experiment: Study BP39055 Part 1: pharmacokinetics (AUC0-24h,ss) in SMA patients
Format: in vivo, human
Details: human, in vivo; 12-25 yr, 3 mg; read-out: estimated AUC0-24h,ss, median
Text: Study BP39055 is a two-part operationally seamless, multi-center, randomized, placebo-controlled, double-blind study to investigate the safety, tolerability, pharmacokinetics (PK), pharmacodynamics (PD) and efficacy of RO7034067 in Type 2 and 3 spinal muscular atrophy (SMA) patients. The study consists of an exploratory dose-finding part (Part 1) and a confirmatory part (Part 2). […]
reported-endpoint: AUC(0-t) (µg·h/mL)
Give the quantity in µg·h/mL, number only.

// query AUC(0-t) value for entry Cc1cn2nc(-c3cc(=O)n4cc(N5CCNC6(CC6)C5)ccc4n3)cc(C)c2n1
1.04

###

assay: 39-week monkey toxicity study: toxicokinetics in plasma; type: in vivo, cynomolgus monkeys (Macaca fascicularis); conditions: female, cynomolgus monkey, plasma; Day 267, 3 mg/kg/day oral; read-out: Cmax, female (mean)
reported-endpoint: Cmax (ng/mL)
Give the quantity in ng/mL, number only.

// query Cmax value for entry Cc1cn2nc(-c3cc(=O)n4cc(N5CCNC6(CC6)C5)ccc4n3)cc(C)c2n1
973

###

assay: 39-week monkey toxicity study: retina effects (ERG, sdOCT, histopathology), NOAEL; conditions: male, cynomolgus monkey, plasma, po, 5 mg/kg/day
reported-endpoint: AUC(0-t) (ng·h/mL)
Give the quantity in ng·h/mL, number only.

// query AUC(0-t) value for entry Cc1cn2nc(-c3cc(=O)n4cc(N5CCNC6(CC6)C5)ccc4n3)cc(C)c2n1
5880
